system: A549; experiment: Cytotoxicity against human A549 cells assessed as growth inhibition after 24 to 48 hrs by sulforhodamine B assay; assay type: functional, cell-based
For each of the compounds below, state its pIC50.
The quantity pIC50 is defined as the negative base-10 logarithm of the molar concentration.

Prompt: Give the measured pIC50 of COc1ccc(-c2cc(C(=O)NO)n(Cc3ccccc3)n2)cc1 .
Completion: 5.17

Prompt: Another compound to check: O=C(NO)c1cc(-c2ccc(Cl)cc2)nn1Cc1ccccc1
Completion: 5.35

Prompt: Now this one: O=C(NO)c1cc(-c2ccc(Cl)cc2)nn1Cc1ccc([N+](=O)[O-])cc1
Completion: 5.11

Prompt: Now the same for COc1ccc(-c2cc(C(=O)NO)n(Cc3ccc([N+](=O)[O-])cc3)n2)cc1
Completion: 5.15

Prompt: Request: COc1ccc(-c2cc(C(=O)NO)n(Cc3ccc(Cl)nc3)n2)cc1
Completion: 5.07

Prompt: Likewise for COc1ccc(-c2cc(C(=O)NO)n(Cc3ccc(C(C)(C)C)cc3)n2)cc1 ?
Completion: 5.59

Prompt: Entry to check: O=C(NO)c1cc(-c2ccccc2)nn1Cc1ccc(Cl)nc1
Completion: 5.07

Prompt: What do you have for CC(C)(C)c1ccc(Cn2nc(-c3ccc(Cl)cc3)cc2C(=O)NO)cc1 ?
Completion: 5.74

Prompt: Continue with O=C(NO)c1cc(-c2ccccc2)nn1Cc1ccccc1
Completion: 5.25

Prompt: Query O=C(NO)c1cc(-c2ccc(Cl)cc2)nn1Cc1ccc(Cl)nc1 next
Completion: 5.38

Prompt: Another compound: O=c1[nH]cc(F)c(=O)[nH]1
Completion: 5.78

Prompt: // next record O=C(NO)c1cc(-c2ccccc2)nn1Cc1ccc([N+](=O)[O-])cc1
Completion: 5.22

Prompt: Now try CC(C)(C)c1ccc(Cn2nc(-c3ccccc3)cc2C(=O)NO)cc1 .
Completion: 5.76
